- System: SNU-16 (Gastric Carcinoma)
- assay comment: combination Emax (second highest fraction inhibited in the dose matrix, 72 h); higher = more inhibition; extreme values may be limits of the assay
attribute measured: combination Emax

Examples from the recorded data:
CCc1c2c(nc3ccc(O)cc13)-c1cc3c(c(=O)n1C2)COC(=O)[C@]3(O)CC [SN-38] + O=C(c1cc(Cc2n[nH]c(=O)c3ccccc23)ccc1F)N1CCN(C(=O)C2CC2)CC1 [Olaparib] (first compound max 0.3 µM, 7x7, partner max 10 µM) = 0.848
CC1(C)CCC(CN2CCN(c3ccc(C(=O)NS(=O)(=O)c4ccc(NCC5CCOCC5)c([N+](=O)[O-])c4)c(Oc4cnc5[nH]ccc5c4)c3)CC2)=C(c2ccc(Cl)cc2)C1 [Venetoclax] + C[C@@H]1COCCN1C2=NC(=NC(=C2)C3(CC3)[S@](=N)(=O)C)C4=C5C=CNC5=NC=C4 [AZD6738] (first compound max 1 µM, 7x7, partner max 10 µM) = 0.973
Cc1c2c(nn1C)CSCc1cc(n(C)n1)CSc1cc(c3ccccc3c1)OCCCc1c(C(=O)O)n(C)c3c-2c(Cl)ccc13 [AZD5991] + CN(C)CCCOc1ccc(-c2ccc3ncc4c(c3c2)n(C2CCOCC2)c(=O)n4C)cn1 [AZD0156] (first compound max 1 µM, 7x7, partner max 1 µM) = 0.974

INPUT: # combination Emax lookup, item Cc1c2c(nn1C)CSCc1cc(n(C)n1)CSc1cc(c3ccccc3c1)OCCCc1c(C(=O)O)n(C)c3c-2c(Cl)ccc13 [AZD5991] + CCN(CCO)CCCOc1ccc2c(Nc3cc(CC(=O)Nc4cccc(F)c4)[nH]n3)ncnc2c1 [AZD2811] (first compound max 1 µM, 7x7, partner max 1 µM)
OUTPUT: 0.996

The reported numbers originate from the supplement of paper PMC11061612.
